All figures here come from the supplement of paper PMC9170038.

Tested on: MS2 coat protein
Assay: apparent KD of MS2 coat protein; higher = weaker reporter binding
Settings: Eterna round: R107; input ligand: theophylline 20 uM
Here, each record is paired with measured apparent KD of MS2 coat protein data.

Some sequences with known apparent KD of MS2 coat protein results, for comparison:
biopolymer-sequence | apparent KD of MS2 coat protein
ACAUGAGGAUCACCCAUGUUCCUCGCCGAUACCAGUGAAGAAGAACGCCCUUGGCAGCGGAAAGAAUAUUUUGGAGAUGAGGUAU [6.W] | 219 nM
GCAACAUGAGGAUCACCCAUGUUUACUGAAGGAGCGAGACAGAACUCAGGUAGGUCGCAGACGGCGGAAUCGCCGACGACAUGGG [Exclusion Arginine A GF24] | 33.5 nM
UGUAUUACGAAAGUAGUACAUCGUGUUCGACGAGGACCGGUACGGCCGCCACUCGGACAUGAGGAUCACCCAUGUAGCGAAAGCU [Tryptophan A 25] | 354 nM
UUCAGCUAGUCGGCCGCCACUACCUGAGGAUCACCCUGGUAAUCCUAACACUGCUUCGGCAGUGGUAGGACCGGGACUAGCUGAG | 39.7 nM
GCAAUACAUGAGGAUCACCCAUGUGCAGAUACCAGAGGUGCGUGCCUCCCUUGGCAGCUGCGACGCUCUGGAAGCUUGUGUGUCU [Exclusion Theophylline A GF27] | 26.2 nM
GAGACGUCGGGAAGGAGCGCAUCCAAACCACACAUGAGGAUCACCCAUGUAUAAAUAUGCAUGCAGGUAGGUCGCCCGGUGUCCA [Xegeisge] | 120 nM
UUAUUUAUAUUAGAUACCAGUUUAAUGGCCGCAAAUCCUGACAUGAGGAUCACCCAUGUAAGCCCUUGGCAGCUGGUAUGGGUUU [XTheo B #26] | 25.2 nM
ACAUGGGUCUGAAGGAGCGCGAUAACAUGAGGAUCACCCAUGUAAAAUGGAACAUGAUAAUCGCAGGUAGGUCGCAGUAAAACCC [Same State Arginine B GF 11] | 344 nM
AAUGUAUGGCACAUGAGGAUCACCCAUGUGCGAGGACCGGUACGGCCGCCACUCGGUCCUGGGAUCUUAAUACUAUACAUUAAUG [XTryp A #19] | 15.1 nM
UCACGACGGAUGGAUACCAGCGACAUGAGGAUCACCCAUGUAUGAGGAUCAGCCAUGUUAUGCCCUUGGCAGCCACGAAGGUCAU [YYYMULLIN] | 29.3 nM

Problem: Fill in apparent KD of MS2 coat protein for record UAUUUGGUGCGCGAGUGUUGGAUAAUUGAUACCAGUGAAGAAGAGCGCCCUUGGCAGCGAAUCCUAACAUGAGGAUCACCCAUGU [5.T]
Solution: 55.3 nM

Problem: Fill in apparent KD of MS2 coat protein for record AACAUACAAUAAUAGGUGGAUAUAAGGCGGCGAGGACCGGUACGGCCGCCACUCGCGUACAUGAGGAUCACCCAUGUCUGAAACU [Same State - Tryptophan A (Freestyle 3)]
Solution: 26.8 nM

Problem: Fill in apparent KD of MS2 coat protein for record UUAAUCAAUAUAGAAAACUAUAUUGCAGAAGGAGCGUGAUAAAACACAGGUAGGUCGCUGAAGGGAACAUGAGGAUCACCCAUGU [AstrosSSArgA#5]
Solution: 32.5 nM

Problem: Fill in apparent KD of MS2 coat protein for record ACAUGAGGAUCACCCAUGUCAUGAGGUUCACGAGGACCGGUACGGCCGCCACUCGACAUGAGGGUCACCCAUGUGAGGAACACCC [mamullun]
Solution: 278 nM

Problem: Fill in apparent KD of MS2 coat protein for record GGGCCCGGGCCGGAAACGGCCCGGGCCCUGCGAGGACCGGUACGGCCGCCACUCGCUCGAGUGGGUACAUGAGGAUCACCCAUGU [#17 Exclusion Tryptophan A]
Solution: 45.8 nM

Problem: Fill in apparent KD of MS2 coat protein for record GGGUGUGAUCCGGAUACCAGCGAACAUGAGGAUCACCCAUGUGACCUGAGAUCGGCUCUACGCCCUUGGCAGCCGCGGUCGCAGG [Same State Theophylline B GF13]
Solution: 19.5 nM

Problem: Fill in apparent KD of MS2 coat protein for record GGCACAUAGUCGGCCGCCACUAGUGGGAAAUGGGAGAACAUGAGGAUCACCCAUGUAGCGUAGCCUAGGACCGGGACUAUGUGCC [Elephant]
Solution: 172 nM

Problem: Fill in apparent KD of MS2 coat protein for record AUCGUACCUGAGGAUACCAGCAUGUGAUCAUAACAUGAGGAUCACCCAUGUAAUCAGUGAUGCCCUUGGCAGCUUAGUCGAUACA [Same State - Theophylline B (Freestyle 7)]
Solution: 101 nM

Problem: Fill in apparent KD of MS2 coat protein for record UUCAGCUAGUCGGCCGCCACUAUCUGAGGAUCACCCAGGUAAUCCUAACACUGCUUCGGCAGUGGUAGGACCGGGACUAGCUGAG
Solution: 26.3 nM

Problem: Fill in apparent KD of MS2 coat protein for record UGACAUUGCUCAGAUACCAGACAUGAGGAUCACCCAUGUGCCAAAUACGUACAAAUAAAUGUCCCUUGGCAGCUGAGCAAUGUCU [TheoBX 12 #MS2Left #Theo2]
Solution: 22.2 nM

Problem: Fill in apparent KD of MS2 coat protein for record CAUUAAGUAACUGAUACCAGUGUACUGACAUGAGGAUCACCCAUGUUGGGUUUUGUUGUACACCCUUGGCAGCAGAAUCUUAAUG [AstrosExyTheB#3]
Solution: 70.2 nM

Problem: Fill in apparent KD of MS2 coat protein for record GUGUUAUGGUCGGCCGCCACUCUGACAUGAGGAUCACCCAUGUUGUACAUGAGGAUCACCCAUGUGAGGACCGGGACACGUGCGA [Exclusion Tryptophan B GF10]
Solution: 363 nM

Problem: Fill in apparent KD of MS2 coat protein for record GGUGGCUGGAUCGAUACCAGCCACCACCGAUAGACCACAUGAGGAUCACCCAUGUUGGGUGGCCCUUGGCAGCGGUCCGGCUGCC [#1 Same State - Theophylline B Attempt #7 (HarryS)]
Solution: 679 nM

----------
System: MS2 coat protein
Test: apparent KD of MS2 coat protein; higher = weaker reporter binding
Conditions: Eterna round: R107; input ligand: none
Here, each record is paired with measured apparent KD of MS2 coat protein data.
Numbers only here, please. The scale is nM.

Some sequences with known apparent KD of MS2 coat protein results, for comparison:
biopolymer-sequence | target-or-test-system | unit-of-measurement | apparent KD of MS2 coat protein
GGAGCUACGUCGGCCGCCACUAGCGGGUAUUGCGUGUACAUGAGGAUCACCCAUGUAAUAUGGCCUAGGACCGGGACGUAGCUCC [Bison] | MS2 coat protein | nM | 16.7
ACGAACGCACCUGAGGAACACCCAGGUGAUACCAGCCUGGAAACAGGCCCUUGGCAGCACCUAAAAUAAAGGUAACGUUCGAAUA [TheoAX8 #MicroSwitchBubble #AlternativeMS2] | MS2 coat protein | nM | 126
GAUAUAACAAAAGUUGUAUCAGUGGGUGAACGAGGACCGGUACGGCCGCCACUCGGACAUGAGGAUCACCCAUGUCCAUGUGAAA [AstrosExyTryA#18] | MS2 coat protein | nM | 14.7
GUAAUAUACAGAAGGAGCGUGAUAGUGAGCUUGUACAACAUGAGGAUCACCCAUGUAUAAUCACAGGUAGGUCGCUGUAUAGGGU [Arg B SS t2] | MS2 coat protein | nM | 16.1
GGAUAGGACACGGCCGCCACUAGCUAGGAUACUAGCAACAUUUCCUCAGAUGAGGAUCACCCAUCUAGGACCGGGUGUCCUAUCG | MS2 coat protein | nM | 26

Problem: Fill in apparent KD of MS2 coat protein for record ACACGGAAUGAUGGAUCACCUCGUUAAUAACGAGGACCGGUACGGCCGCCACUCGAAAACCGUGACCUGUACGAAAAGUGCAGGA [TrypAS 15 #SwitchBubble #HomemadeMS2 #StaticStrem #MS2Early]
Solution: 33.6

----------
Tested on: MS2 coat protein
Experiment: apparent KD of MS2 coat protein; designed switch direction (-1 OFF switch, 1 ON switch): -1; higher = weaker reporter binding
Settings: input ligand: FMN 200 uM
Here, each record is paired with measured apparent KD of MS2 coat protein data.
Numbers only here, please. The scale is nM.

Some sequences with known apparent KD of MS2 coat protein results, for comparison:
biopolymer-sequence | measured-metric | unit-of-measurement | value-measured
AAUAAUAGCGAGGAUAUCGUAUCGGAAACGAUACGAGAAGGCGUAACAUGAGGAUCACCCAUGUUCCUCAAUAA [Fiskers Ex 6 - 3] (Eterna round: R96, puzzle: Exclusion 6) | apparent KD of MS2 coat protein | nM | 354
UUAUGUGCGAGAGGAUAUCGUGUACAAAGUACACGAGAAGGCUUCACAUGAGGAUCACCCAUGUACCGAGGUGAAACACCUUGA [Omei Exc(NG)1 Bv7] (Eterna round: R96, puzzle: Exclusion NG 1) | apparent KD of MS2 coat protein | nM | 660
UAUUAGUAAGGAUAUGAGCCGUAGGACGAAAGUCCUACGGCUCAGAAGGUACAUGAGGAUCACCCAUGUUUAUU [Mod of Fisker 6 - Jieux - Exclusion 4] (Eterna round: R97, puzzle: Exclusion 4) | apparent KD of MS2 coat protein | nM | 22.5

Problem: Fill in apparent KD of MS2 coat protein for record AACUCACGUUCAGGAUAUCGCGUUCCAAAGACAUGAGAAGGGAACAUGAGGAUCACCCAUGUGCCCGGUCUCAGACCGGGCUUC [Cetein] (Eterna round: R96, puzzle: Exclusion NG 1)
Solution: 328

Problem: Fill in apparent KD of MS2 coat protein for record UCUGGUCGAGGAUAUACGUGAGGUGUUUCGGCACUAGGUCUACAUGAGGAUCACCCAUGUAGAAGGCGAUCAGA [EX2 #64] (Eterna round: R97, puzzle: Exclusion 2)
Solution: 536
